target: T1, human MSLN-FL-his protein (human, UniProt Q13421 296-580); assay: ELISA, coated antigen, antibody 0.02 nM
T1 construct: Made in HEK293E cells, purified on nickel column; also called hMSLN-FL-his; human MSLN full-length protein; not shown: His tag
T1 sequence (Q13421 other isoform, or with tags, fused parts or gaps): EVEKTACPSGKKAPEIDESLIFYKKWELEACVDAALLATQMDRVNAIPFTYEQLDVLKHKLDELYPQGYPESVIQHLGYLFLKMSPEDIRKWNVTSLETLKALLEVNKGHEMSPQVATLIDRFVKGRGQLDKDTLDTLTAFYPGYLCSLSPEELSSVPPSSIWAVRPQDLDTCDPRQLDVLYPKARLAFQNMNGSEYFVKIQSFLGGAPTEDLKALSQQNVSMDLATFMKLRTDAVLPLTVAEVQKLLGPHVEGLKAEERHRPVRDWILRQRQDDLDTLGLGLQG
quantity kind: OD450
# answer = number (no unit)

Known OD450 results, listed for orientation:
S009-F7.12.13 chimeric antibody (antibody, human IgG1, kappa, V domains shown, Human-murine chimeric antibody, human IgG1/kappa constant regions) VH: EVQLQQSGPELVKPGASVKIPCKASGYTFTDYNMDWVKQSHGKGLEWIGDINPNTDDTIYNQKFNGKATLTVDKSSSTAYMELRSLTSEDTAVYYCSRRLIGTGYFDVWGTGTTVTVSS VL: QIVLTQSPAIMSASPGEKVTLTCSASSSVISTYLCWYRQKPGSSPELWIYSTSNLASGVPARFSGSGSGTSYSLTISSMEAEDAASYFCHQWSNYPYTFGGGTKLGMKR
1.44
S009-F7.61.21 chimeric antibody (antibody, human IgG1, kappa, V domains shown, Human-murine chimeric antibody, human IgG1/kappa constant regions) VH: DVQLQQSGPELVEPGASVRIPCKAAGHTFTDYNVDWVKQSHGQSLEWIGDVNPNTDGAIYNQKFEGKATLTVDTSSSTAYMELRSLTSEDTAVYFCARRRLGQGGFDSWGQGTTLTVSS VL: QVVLTQSPAIMSASPGEKVTLTCGASSSLISKYLYWYQQKPGSSPKLWIYSTSNLASGVPARFSGSGSGTSYSLTISSMEAEDAASYFCHQWSSYPYTFGGGTKVEIKR
0.95
S009-F7.6.17 chimeric antibody (antibody, human IgG1, kappa, V domains shown, Human-murine chimeric antibody, human IgG1/kappa constant regions) VH: QVQLQQSGAELARPGASVKMSCKASGYTFTTYTMHWVKQRPGQGLEWIGYISPTGDFTKYNQKFKDKATLTTDKSSNTAFMQLSSLTSEDSAVYYCARWNGTVWFAYWGQGTLVTVSA VL: DIVMTQSQKFMSTSVGDRVTVTCKASQALGTNVAWYQQKPGQSPKVLIYSASYRYSGVPYRFAGGGSGTDFTLTITNVQSEDLAEYFCQQYNNYPLTFGAGTKLELKR
1.78

Next, consider the following binder.
Exercise: Recorded OD450 of S009-F7.21.16 chimeric antibody (antibody, human IgG1, kappa, V domains shown, Human-murine chimeric antibody, human IgG1/kappa constant regions) VH: QVQLQQPGTELVKPGASVKLSCKASGYTFTTFWMHWVKQRPGQGLEWIGGVNPTNGGTNYNEKFRTKATLTVDKSSTTADMQLSSLTSEDSAVYYCAPHYISSRPGFAYWGQGTLVTVSG VL: DIVMTQSQKFMSTSGGDRVSVTCKASQNVGTNVAWYQQKPGQSPKALIYSASYRYSGVPDRFTGSGSGTDFILTISNVQSEDLAEYFCQQYNSYPLTFGGGTKLEIKR , please.
Solution: 1.39
